Data credit: patent US10670605B2

# Target under test: UCHL3 C95 (P15374) (Homo sapiens, UniProt P15374)
# Sequence (P15374 whole entry): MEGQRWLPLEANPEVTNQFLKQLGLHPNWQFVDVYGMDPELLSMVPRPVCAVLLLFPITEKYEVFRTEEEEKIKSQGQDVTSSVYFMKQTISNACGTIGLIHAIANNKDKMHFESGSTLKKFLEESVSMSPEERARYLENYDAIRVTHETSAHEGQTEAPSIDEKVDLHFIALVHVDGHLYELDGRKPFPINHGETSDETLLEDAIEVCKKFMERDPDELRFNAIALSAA
# Protocol text: Competitive isoTOP-ABPP, cell lysates
# Format: binding
# Recorded conditions: 500 μm, in-vitro_ramos_231
# Experimental: TEV digests were pressure loaded onto a 250 μm (inner diameter) fused silica capillary column packed with C18 resin (Aqua 5 μm, Phenomenex). The samples were analyzed by multidimensional liquid chromatography tandem mass spectrometry (MudPIT), using an LTQ-Velos Orbitrap mass spectrometer (Thermo Scientific) coupled to an Agilent 1200-series quaternary pump. […]
Please provide measured isoTOP-ABPP reactivity ratio, P15374_C95 for the entries that follow.
One number for each entry.

Field: isoTOP-ABPP reactivity ratio, P15374_C95. Fill in for each record below.
1. CC(C)(C)c1cc(NC(=O)CCl)on1 [compound 32]
2. C=CC(=O)N(Cc1cccnc1)c1cc(C(F)(F)F)cc(C(F)(F)F)c1 [compound 31]
3. Cc1ccc(C=C(C#N)C(=O)NCCN2CCOCC2)cc1 [compound 41]
4. C=CC(=O)Nc1cc(F)c(N2CCN(C(=O)OC(C)(C)C)CC2)c(F)c1 [compound 38]

Response:
[1.2, 0.9, 1.0, 2.7]

====

# Target under test: UniProt:P00813
# Sequence (P00813 whole entry): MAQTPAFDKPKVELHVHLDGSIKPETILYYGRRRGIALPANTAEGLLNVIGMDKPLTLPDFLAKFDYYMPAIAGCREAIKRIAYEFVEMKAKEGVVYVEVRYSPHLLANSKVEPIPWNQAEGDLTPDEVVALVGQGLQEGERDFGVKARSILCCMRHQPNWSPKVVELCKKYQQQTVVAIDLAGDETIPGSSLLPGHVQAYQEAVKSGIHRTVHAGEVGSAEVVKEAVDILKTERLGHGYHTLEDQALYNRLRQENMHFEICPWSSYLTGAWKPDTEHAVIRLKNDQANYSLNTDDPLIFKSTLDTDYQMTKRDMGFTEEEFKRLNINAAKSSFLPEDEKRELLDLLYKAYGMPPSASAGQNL
# Protocol text: Competitive isoTOP-ABPP, cell lysates
# Format: binding
# Recorded conditions: 500 μM, invitro, ramos
Outcome: Met for isoTOP-ABPP ratio, P00813_C75 of at least 0.9; Not met for anything lower.

// below: answered compounds
O=C(CCl)NC(=O)NC12CC3CC(CC(C3)C1)C2: Not met
Cn1cc(S(=O)(=O)N2CCOCC2)cc1C(=O)NC(=O)CCl: Met
C=CC(=O)N(c1ccccc1)c1ccc(Br)cc1: Met

Here is the next item to consider.
Request: State whether the measured isoTOP-ABPP ratio, P00813_C75 reaches 0.9, counting equality as reaching it, for `O=C(CCl)N1CCN(S(=O)(=O)c2ccccc2F)CC1`
Response: Met

====

# Target under test: cysteines in MDA-MB-231 and Ramos cells (Homo sapiens, UniProt Q15021)
# Protocol text: Competitive isoTOP-ABPP in situ (fragment-treated cells)
# Type: cell-based
# Recorded conditions: 200 μM, insitu, 231
Measured attribute: isoTOP-ABPP ratio Q15021_C439
Numbers only.

The examples below pair each entry with its known result.
COc1ccccc1OCCNC(=O)CCl [compound 28]: 0.9
C=CC(=O)Nc1cc(F)c(N2CCN(C(=O)OC(C)(C)C)CC2)c(F)c1 [compound 38]: 1.1
Cc1ccc(C=C(C#N)C(=O)NCCN2CCOCC2)cc1 [compound 41]: 0.8
C=CC(=O)N(Cc1cccnc1)c1cc(C(F)(F)F)cc(C(F)(F)F)c1 [compound 31]: 20.0

Note: attention shifts to another entry.
Request: Form field: reported isoTOP-ABPP ratio Q15021_C439 of O=C(CCl)NC(=O)NC12CC3CC(CC(C3)C1)C2 [compound 12]
Response: 6.7

====

# Target under test: cysteines in MDA-MB-231 and Ramos cells (Homo sapiens, UniProt Q8TAQ2)
# Sequence (Q8TAQ2 whole entry, the tested form may be a part): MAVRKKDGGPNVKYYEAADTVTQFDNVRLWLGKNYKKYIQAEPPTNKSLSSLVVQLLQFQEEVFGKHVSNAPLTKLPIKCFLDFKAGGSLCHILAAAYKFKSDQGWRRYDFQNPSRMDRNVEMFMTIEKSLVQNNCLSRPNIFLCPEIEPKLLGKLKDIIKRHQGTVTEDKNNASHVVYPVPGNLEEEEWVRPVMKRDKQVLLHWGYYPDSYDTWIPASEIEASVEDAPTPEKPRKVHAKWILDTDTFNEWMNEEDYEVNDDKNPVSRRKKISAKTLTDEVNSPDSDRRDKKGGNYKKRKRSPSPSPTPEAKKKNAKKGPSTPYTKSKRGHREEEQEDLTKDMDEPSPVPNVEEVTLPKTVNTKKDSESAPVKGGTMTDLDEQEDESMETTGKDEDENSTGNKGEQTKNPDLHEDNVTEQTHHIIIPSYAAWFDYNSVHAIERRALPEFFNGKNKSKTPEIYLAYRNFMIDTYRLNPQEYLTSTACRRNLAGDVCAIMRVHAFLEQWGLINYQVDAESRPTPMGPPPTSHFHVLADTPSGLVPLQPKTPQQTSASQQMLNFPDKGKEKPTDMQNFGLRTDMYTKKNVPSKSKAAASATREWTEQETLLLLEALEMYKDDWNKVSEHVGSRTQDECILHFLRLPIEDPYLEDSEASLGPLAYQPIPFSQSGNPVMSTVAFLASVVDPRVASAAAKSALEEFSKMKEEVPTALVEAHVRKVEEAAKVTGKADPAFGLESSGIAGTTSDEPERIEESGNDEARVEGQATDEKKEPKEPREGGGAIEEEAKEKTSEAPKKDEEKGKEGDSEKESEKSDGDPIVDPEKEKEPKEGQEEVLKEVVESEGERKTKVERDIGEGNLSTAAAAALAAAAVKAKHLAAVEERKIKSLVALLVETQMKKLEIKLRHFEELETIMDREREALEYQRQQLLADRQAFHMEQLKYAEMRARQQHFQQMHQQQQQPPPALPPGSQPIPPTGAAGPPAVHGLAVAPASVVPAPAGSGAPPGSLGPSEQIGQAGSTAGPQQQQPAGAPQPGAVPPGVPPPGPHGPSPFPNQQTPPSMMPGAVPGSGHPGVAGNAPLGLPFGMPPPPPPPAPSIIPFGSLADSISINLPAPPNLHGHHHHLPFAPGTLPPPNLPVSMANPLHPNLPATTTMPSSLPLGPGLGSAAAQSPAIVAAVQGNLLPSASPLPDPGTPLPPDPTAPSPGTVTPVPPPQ
# Protocol text: Competitive isoTOP-ABPP in situ (fragment-treated cells)
# Assay type: cell-based
# Recorded conditions: 200 μM, insitu, 231
Measured attribute: isoTOP-ABPP ratio Q8TAQ2_C145
Numbers only.

The examples below pair each entry with its known result.
CC1CCc2ccccc2N1C(=O)CCl (stereo not shown): 2.9
O=C(CCl)Nc1cccc2ncccc12: 1.2
CC(C)CCOCCNC(=O)CCl: 2.1

Note: attention shifts to another entry.
Request: Form field: reported isoTOP-ABPP ratio Q8TAQ2_C145 of `O=C(CCl)NCCc1c[nH]c2ccccc12`
Response: 1.1

====

# Target under test: XPO1 C34 (O14980) (Homo sapiens, UniProt O14980)
# Protocol text: Competitive isoTOP-ABPP, cell lysates
# Format: binding
# Recorded conditions: 500 μm, in-vitro_ramos_231
Measured attribute: isoTOP-ABPP reactivity ratio, O14980_C34
One number for each entry.

The examples below pair each entry with its known result.
C=CC(=O)Nc1cc(C)c(Br)cc1C: 0.8
C=CC(=O)Nc1cc(F)c(N2CCN(C(=O)OC(C)(C)C)CC2)c(F)c1: 1.0
O=C(CCl)Nc1cc(C(=O)O)cc(C(F)(F)F)c1: 1.3

Field: isoTOP-ABPP reactivity ratio, O14980_C34. Fill in for each record below.
1. O=C(CCl)N(Cc1ccc(F)cc1)C12CC3CC(CC(C3)C1)C2
2. C=CC(=O)N(Cc1cccnc1)c1cc(C(F)(F)F)cc(C(F)(F)F)c1

Response:
1: 0.8; 2: 1.0

====

# Target under test: LRBA C1704 (P50851) (Homo sapiens)
# Sequence (P50851 whole entry): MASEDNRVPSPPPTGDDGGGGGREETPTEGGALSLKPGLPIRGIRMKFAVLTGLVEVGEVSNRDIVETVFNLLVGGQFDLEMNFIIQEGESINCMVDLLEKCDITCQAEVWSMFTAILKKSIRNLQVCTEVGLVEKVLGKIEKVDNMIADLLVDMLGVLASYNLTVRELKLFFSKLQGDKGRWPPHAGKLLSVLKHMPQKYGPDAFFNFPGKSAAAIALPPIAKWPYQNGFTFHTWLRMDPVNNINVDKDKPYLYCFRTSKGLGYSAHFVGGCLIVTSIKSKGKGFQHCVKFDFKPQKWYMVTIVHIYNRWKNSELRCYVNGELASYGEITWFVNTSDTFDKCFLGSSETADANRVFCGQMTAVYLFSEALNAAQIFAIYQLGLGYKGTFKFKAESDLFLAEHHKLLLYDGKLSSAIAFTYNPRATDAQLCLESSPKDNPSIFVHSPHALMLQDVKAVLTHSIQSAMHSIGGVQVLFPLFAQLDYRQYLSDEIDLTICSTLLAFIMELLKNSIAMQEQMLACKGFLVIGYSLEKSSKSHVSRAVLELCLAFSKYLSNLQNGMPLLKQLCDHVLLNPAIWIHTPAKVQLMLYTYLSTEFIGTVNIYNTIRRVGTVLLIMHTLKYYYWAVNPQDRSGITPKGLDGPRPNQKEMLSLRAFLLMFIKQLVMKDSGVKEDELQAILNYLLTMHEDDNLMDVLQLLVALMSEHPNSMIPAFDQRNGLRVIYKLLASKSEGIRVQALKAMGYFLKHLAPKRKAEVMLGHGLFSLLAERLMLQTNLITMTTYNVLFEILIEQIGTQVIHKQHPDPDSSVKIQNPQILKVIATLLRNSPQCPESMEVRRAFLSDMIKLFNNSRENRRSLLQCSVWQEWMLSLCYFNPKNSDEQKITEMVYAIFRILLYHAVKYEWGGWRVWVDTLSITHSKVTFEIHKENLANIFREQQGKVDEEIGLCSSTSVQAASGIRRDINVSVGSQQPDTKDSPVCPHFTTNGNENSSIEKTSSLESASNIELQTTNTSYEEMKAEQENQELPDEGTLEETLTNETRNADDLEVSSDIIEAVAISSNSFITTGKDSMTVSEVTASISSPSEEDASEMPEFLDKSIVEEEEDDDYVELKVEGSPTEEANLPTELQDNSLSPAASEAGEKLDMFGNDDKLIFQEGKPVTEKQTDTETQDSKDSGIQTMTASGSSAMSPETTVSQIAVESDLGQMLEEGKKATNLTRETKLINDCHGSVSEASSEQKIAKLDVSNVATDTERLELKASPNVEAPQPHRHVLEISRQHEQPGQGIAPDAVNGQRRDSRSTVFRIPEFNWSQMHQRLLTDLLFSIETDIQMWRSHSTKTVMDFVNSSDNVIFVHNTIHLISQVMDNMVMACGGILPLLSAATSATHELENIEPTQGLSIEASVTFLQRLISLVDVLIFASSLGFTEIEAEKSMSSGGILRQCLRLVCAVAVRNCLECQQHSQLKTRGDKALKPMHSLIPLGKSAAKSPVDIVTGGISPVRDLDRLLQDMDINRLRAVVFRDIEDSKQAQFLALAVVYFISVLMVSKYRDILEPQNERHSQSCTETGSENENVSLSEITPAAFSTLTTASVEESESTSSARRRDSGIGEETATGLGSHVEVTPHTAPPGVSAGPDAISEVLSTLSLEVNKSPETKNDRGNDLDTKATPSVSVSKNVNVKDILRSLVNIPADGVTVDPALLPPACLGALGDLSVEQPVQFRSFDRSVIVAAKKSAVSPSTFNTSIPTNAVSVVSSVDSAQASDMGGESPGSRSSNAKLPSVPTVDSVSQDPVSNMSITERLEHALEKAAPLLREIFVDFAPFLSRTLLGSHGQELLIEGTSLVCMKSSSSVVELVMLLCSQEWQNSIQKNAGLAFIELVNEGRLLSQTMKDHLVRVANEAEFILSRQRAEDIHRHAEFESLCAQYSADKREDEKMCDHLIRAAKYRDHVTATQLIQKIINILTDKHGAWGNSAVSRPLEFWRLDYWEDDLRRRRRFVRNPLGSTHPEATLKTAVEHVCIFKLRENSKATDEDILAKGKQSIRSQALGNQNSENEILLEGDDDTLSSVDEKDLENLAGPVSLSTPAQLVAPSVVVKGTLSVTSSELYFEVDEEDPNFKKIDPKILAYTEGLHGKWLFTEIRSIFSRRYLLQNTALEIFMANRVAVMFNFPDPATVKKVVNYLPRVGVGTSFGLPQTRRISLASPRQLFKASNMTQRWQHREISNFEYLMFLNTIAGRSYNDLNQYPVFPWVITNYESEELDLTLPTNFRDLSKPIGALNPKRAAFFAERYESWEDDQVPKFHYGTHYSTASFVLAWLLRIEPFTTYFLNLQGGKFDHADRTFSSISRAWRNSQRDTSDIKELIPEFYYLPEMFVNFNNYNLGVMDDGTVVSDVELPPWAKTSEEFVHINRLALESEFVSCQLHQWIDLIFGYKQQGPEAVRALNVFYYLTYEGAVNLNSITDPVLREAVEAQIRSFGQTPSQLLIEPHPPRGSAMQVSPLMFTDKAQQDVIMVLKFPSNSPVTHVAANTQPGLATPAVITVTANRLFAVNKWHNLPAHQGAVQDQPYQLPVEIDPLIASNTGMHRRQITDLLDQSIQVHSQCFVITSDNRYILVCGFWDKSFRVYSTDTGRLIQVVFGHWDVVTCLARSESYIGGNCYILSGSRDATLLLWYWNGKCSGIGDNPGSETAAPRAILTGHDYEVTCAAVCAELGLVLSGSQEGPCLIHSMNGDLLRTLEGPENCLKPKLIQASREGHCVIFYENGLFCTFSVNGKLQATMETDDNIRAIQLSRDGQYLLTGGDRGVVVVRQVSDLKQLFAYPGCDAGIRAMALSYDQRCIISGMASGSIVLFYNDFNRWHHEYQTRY
# Protocol text: Competitive isoTOP-ABPP, cell lysates
# Assay type: binding
# Recorded conditions: 500 μm, in-vitro_ramos
Measured attribute: isoTOP-ABPP reactivity ratio, P50851_C1704
Answers are plain numbers.

The examples below pair each entry with its known result.
C=CC(=O)N(Cc1cccnc1)c1cc(C(F)(F)F)cc(C(F)(F)F)c1: 1.4
CC(C)(C)c1cc(NC(=O)CCl)on1: 2.0
O=C(CCl)Nc1ccccc1C1CCCCCC1: 1.1

Field: isoTOP-ABPP reactivity ratio, P50851_C1704. Fill in for each record below.
1. C=CC(=O)N1CCC(c2noc3ccc(F)cc23)CC1
2. C=CC(=O)Nc1cc(F)c(N2CCN(C(=O)OC(C)(C)C)CC2)c(F)c1

Response:
1.0
2.5

====

# Target under test: PDIA6 C55 (Q15084) (Homo sapiens, UniProt Q15084)
# Sequence (Q15084 20-440): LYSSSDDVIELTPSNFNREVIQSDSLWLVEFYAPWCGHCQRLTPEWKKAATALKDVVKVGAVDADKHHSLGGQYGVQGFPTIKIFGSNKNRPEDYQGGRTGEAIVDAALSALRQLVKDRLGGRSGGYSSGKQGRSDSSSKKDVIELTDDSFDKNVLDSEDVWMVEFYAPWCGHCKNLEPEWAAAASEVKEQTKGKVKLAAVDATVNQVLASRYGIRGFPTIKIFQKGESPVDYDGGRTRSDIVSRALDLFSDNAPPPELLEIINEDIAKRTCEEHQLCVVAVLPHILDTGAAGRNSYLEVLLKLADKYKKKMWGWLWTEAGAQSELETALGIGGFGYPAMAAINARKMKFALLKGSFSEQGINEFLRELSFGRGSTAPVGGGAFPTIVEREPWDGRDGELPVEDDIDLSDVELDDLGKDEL
# Protocol text: Competitive isoTOP-ABPP, cell lysates
# Type: binding
# Recorded conditions: 500 μm, in-vitro_ramos
Measured attribute: isoTOP-ABPP reactivity ratio, Q15084_C55
One number for each entry.

The examples below pair each entry with its known result.
CC(C)(C)c1cc(NC(=O)CCl)on1: 20.0
C=CC(=O)N(Cc1cccnc1)c1cc(C(F)(F)F)cc(C(F)(F)F)c1: 1.1
Cc1ccc(C=C(C#N)C(=O)NCCN2CCOCC2)cc1: 0.8

Field: isoTOP-ABPP reactivity ratio, Q15084_C55. Fill in for each record below.
1. C=CC(=O)Nc1cc(F)c(N2CCN(C(=O)OC(C)(C)C)CC2)c(F)c1
2. C=CC(=O)N1CCC(c2noc3ccc(F)cc23)CC1

Response:
1. 1.3
2. 1.0

====

Please provide measured isoTOP-ABPP ratio P46734_C207 for the entries that follow.
# Target under test: cysteines in MDA-MB-231 and Ramos cells (Homo sapiens, UniProt P46734)
# Sequence (P46734 whole entry, the tested form may be a part): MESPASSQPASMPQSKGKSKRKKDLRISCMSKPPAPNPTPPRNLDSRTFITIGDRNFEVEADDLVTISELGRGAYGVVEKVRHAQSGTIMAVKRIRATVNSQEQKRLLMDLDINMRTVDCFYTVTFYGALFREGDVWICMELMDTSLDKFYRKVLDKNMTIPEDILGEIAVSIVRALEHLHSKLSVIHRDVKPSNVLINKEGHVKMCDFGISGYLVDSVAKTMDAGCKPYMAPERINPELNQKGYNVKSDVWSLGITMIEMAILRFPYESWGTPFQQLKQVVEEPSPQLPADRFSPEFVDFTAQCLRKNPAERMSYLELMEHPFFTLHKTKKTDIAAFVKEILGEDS
# Protocol text: Competitive isoTOP-ABPP in situ (fragment-treated cells)
# Type: cell-based
# Recorded conditions: 200 μM, insitu, 231
One number for each entry.

The examples below pair each entry with its known result.
O=C(CCl)NC(=O)NC12CC3CC(CC(C3)C1)C2: 0.7
O=C(CCl)NC12CC3CC(CC(C3)C1)C2: 0.9

Field: isoTOP-ABPP ratio P46734_C207. Fill in for each record below.
1. CC1CCc2ccccc2N1C(=O)CCl (stereo not drawn)
2. Cc1ccc(C=C(C#N)C(=O)NCCN2CCOCC2)cc1
3. O=C(CCl)Nc1cccc2ncccc12
4. O=C(CCl)N1CCN(S(=O)(=O)c2ccccc2F)CC1
5. CC(C)CCOCCNC(=O)CCl
6. O=C(CCl)NCCc1c[nH]c2ccccc12
7. C=CC(=O)Nc1cc(F)c(N2CCN(C(=O)OC(C)(C)C)CC2)c(F)c1

Response:
[1.5, 0.7, 0.7, 0.8, 0.8, 0.8, 1.5]

====

# Target under test: ACAT1 C126 (P24752) (Homo sapiens, UniProt P24752)
# Sequence (P24752 34-427): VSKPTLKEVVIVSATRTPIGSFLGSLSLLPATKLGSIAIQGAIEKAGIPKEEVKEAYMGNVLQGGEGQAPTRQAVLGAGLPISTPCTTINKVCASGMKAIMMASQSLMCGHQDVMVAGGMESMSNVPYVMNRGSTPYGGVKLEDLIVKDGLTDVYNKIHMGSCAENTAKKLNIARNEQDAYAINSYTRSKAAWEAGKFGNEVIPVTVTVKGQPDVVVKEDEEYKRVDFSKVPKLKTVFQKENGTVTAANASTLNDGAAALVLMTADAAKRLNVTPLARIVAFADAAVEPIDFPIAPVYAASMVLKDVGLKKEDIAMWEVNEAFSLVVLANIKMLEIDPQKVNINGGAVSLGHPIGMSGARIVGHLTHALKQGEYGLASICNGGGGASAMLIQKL
# Protocol text: Competitive isoTOP-ABPP, cell lysates
# Format: binding
# Recorded conditions: 500 μm, in-vitro_ramos
Measured attribute: isoTOP-ABPP reactivity ratio, P24752_C126
One number for each entry.

C=CC(=O)Nc1cc(F)c(N2CCN(C(=O)OC(C)(C)C)CC2)c(F)c1: 1.4
CC(C)(C)c1cc(NC(=O)CCl)on1: 8.6
O=C(CCl)N(Cc1ccc(F)cc1)C12CC3CC(CC(C3)C1)C2: 1.1

Field: isoTOP-ABPP reactivity ratio, P24752_C126. Fill in for each record below.
1. CCN(CC)c1ccc(S(N)(=O)=O)cc1NC(=O)CCl
2. C=CC(=O)N1CCC(c2noc3ccc(F)cc23)CC1
3. O=C(CCl)Nc1ccccc1C1CCCCCC1

Response:
1. 1.6
2. 0.9
3. 10.4

Request: Please provide the recorded isoTOP-ABPP reactivity ratio, P24752_C126 for `Cc1ccc(C=C(C#N)C(=O)NCCN2CCOCC2)cc1` , tested on ACAT1 C126 (P24752) (Homo sapiens, UniProt P24752).
Response: 0.9
